The reported numbers originate from the MegaScale stability set (Tsuboyama et al. 2023).

Let's look at some variants and their measured folding stability dG.
B1: HEEH_KT_rd6_3632 (parent)
chain: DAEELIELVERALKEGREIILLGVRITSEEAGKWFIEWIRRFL

Variants of: B1
Assay: folding stability dG (cDNA display proteolysis); higher = more stable
Settings: PBS, room temperature
Measurement kind: folding stability dG (kcal/mol)

[
  {
    "Sequence record": "DAEELIELVERALKEGREIILLGVRITSEEAGKWFIEWIRPFL",
    "Quantitative result": 2.84
  },
  {
    "Sequence record": "DAEELIELVERVLKEGREIILLGVRITSEEAGKWFIEWIRRFL",
    "Quantitative result": 3.55
  },
  {
    "Sequence record": "DAEELIELVERALKEGREIILLGVRITSEEAGKSFIEWIRRFL",
    "Quantitative result": 3.43
  },
  {
    "Sequence record": "DAEELIELVERKLKEGREIILLGVRITSEEAGKWFIEWIRRFL",
    "Quantitative result": 3.08
  },
  {
    "Sequence record": "DAEELIELVERALKEGREIILLGVRITSEEAGKWFQEWIRRFL",
    "Quantitative result": 3.11
  },
  {
    "Sequence record": "DAEELIELVERASKEGREIILLGVRITSEEAGKWFIEWIRRFL",
    "Quantitative result": 3.08
  },
  {
    "Sequence record": "DAEELIELVERALKEGREIILLGVRITSEEAGKWFIEQIRRFL",
    "Quantitative result": 2.96
  },
  {
    "Sequence record": "DAEELIELVERALKEGREINLLGVRITSEEAGKWFIEWIRRFL",
    "Quantitative result": 3.08
  }
]
